target: CYP3A4 (Homo sapiens, UniProt P08684); assay: Inhibition of CYP3A4 (unknown origin) at 10 uM using testosterone as substrate incubated for 20 mins by LC-MS/MS analysis; format: ADME; settings: probe testosterone
Sequence (P08684 whole entry): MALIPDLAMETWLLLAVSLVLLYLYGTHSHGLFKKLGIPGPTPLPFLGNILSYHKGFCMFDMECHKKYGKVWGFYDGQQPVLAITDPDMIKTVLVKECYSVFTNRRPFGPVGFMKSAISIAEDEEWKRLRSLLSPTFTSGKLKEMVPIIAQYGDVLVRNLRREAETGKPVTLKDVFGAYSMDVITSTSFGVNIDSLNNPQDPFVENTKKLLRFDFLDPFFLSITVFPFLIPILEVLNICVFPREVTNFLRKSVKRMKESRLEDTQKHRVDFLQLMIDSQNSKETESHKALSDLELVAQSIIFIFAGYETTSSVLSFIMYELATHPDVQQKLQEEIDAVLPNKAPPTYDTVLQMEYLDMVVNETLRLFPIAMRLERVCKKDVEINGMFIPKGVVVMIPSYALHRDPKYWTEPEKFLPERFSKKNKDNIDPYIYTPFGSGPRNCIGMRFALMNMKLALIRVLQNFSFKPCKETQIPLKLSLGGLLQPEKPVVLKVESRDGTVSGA
TEST READOUT: inhibition at 20 min, 10 µM (%)
Response body: numeric value in %, unit text excluded.

Q: Quick one: inhibition at 20 min, 10 µM of O=S1(=O)CC2(OCCO2)c2cc3nccc(Nc4ccc5scnc5c4)c3cc21 ?
Ans: 9.6

====

test: Apparent permeability of the compound across basolateral to apical side in human Caco-2 cells; assay type: ADME, cell-based; conditions: read-out: permeability
TEST READOUT: Papp B→A (×10⁻⁶ cm/s)
Enter your answer as a number in ×10⁻⁶ cm/s; do not include the unit.

Q: Given the compound O=S1(=O)CC2(OCCO2)c2cc3nccc(Nc4ccc5scnc5c4)c3cc21 , what is its reported Papp B→A?
Ans: 25.3

====

target: CYP3A4 (Homo sapiens); test: Inhibition of CYP3A4 (unknown origin) at 10 uM using midazolam as substrate incubated for 20 mins by LC-MS/MS analysis; assay type: ADME; settings: probe midazolam
TEST READOUT: inhibition at 20 min, 10 µM (%)
Value expressed in %; do not type the unit.

Q: Need inhibition at 20 min, 10 µM, item O=S1(=O)CC2(OCCO2)c2cc3nccc(Nc4ccc5scnc5c4)c3cc21
Ans: -13.7

====

assay: Efflux ratio of apparent permeability across basolateral to apical side over apical to basolateral side in human Caco-2 cells; type: ADME, cell-based
TEST READOUT: efflux ratio

Q: For O=S1(=O)CC2(OCCO2)c2cc3nccc(Nc4ccc5scnc5c4)c3cc21 , what is its reported efflux ratio?
Ans: 0.72

====

assay: Metabolic stability in mouse liver microsomes assessed as intrinsic clearance by LC-MS/MS analysis; type: ADME, Microsome
TEST READOUT: CLH (mL/min/kg)
Reply with just the number (in mL/min/kg).

Q: Would you mind telling me what CLH value was observed for O=S1(=O)CC2(OCCO2)c2cc3nccc(Nc4ccc5scnc5c4)c3cc21 ?
Ans: 269

====

biological target: CDK4/Cyclin D3 (Homo sapiens); assay: Inhibition of CDK4/Cyclin D3 (unknown origin) using FAM-labeled peptide as substrate preincubated for 10 mins followed by substrate addition measured after 60 mins in presence of ATP by caliper mobility shift assay
Sequence (P11802 whole entry): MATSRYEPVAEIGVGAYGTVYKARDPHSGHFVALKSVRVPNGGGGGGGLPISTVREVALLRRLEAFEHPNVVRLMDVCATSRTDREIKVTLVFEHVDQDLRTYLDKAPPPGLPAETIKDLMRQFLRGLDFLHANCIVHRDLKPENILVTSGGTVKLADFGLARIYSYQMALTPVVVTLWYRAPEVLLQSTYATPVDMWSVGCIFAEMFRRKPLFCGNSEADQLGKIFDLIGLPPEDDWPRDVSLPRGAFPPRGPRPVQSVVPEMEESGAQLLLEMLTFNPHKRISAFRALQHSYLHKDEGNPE
Sequence (P30281 whole entry, further chain): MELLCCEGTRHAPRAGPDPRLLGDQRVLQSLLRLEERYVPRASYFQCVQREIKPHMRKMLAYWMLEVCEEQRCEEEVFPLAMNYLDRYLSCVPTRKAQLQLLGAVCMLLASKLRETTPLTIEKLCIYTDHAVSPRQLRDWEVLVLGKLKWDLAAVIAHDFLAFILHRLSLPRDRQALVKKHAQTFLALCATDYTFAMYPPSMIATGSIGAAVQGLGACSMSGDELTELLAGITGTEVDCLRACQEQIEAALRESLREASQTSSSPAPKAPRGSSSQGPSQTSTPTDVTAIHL
TEST READOUT: IC50

Q: Give its IC50 value. Item: O=S1(=O)CC2(OCCO2)c2cc3nccc(Nc4ccc5scnc5c4)c3cc21
Ans: > 10 µM

====

biological target: Phosphatidylinositol 4,5-bisphosphate 3-kinase catalytic subunit alpha isoform (Homo sapiens, UniProt P42336); assay: Inhibition of human PI3Kalpha using ATP as substrate at 25 uM incubated for 60 mins by ADP-glo based luminescence assay
Sequence (P42336 whole entry, canonical isoform): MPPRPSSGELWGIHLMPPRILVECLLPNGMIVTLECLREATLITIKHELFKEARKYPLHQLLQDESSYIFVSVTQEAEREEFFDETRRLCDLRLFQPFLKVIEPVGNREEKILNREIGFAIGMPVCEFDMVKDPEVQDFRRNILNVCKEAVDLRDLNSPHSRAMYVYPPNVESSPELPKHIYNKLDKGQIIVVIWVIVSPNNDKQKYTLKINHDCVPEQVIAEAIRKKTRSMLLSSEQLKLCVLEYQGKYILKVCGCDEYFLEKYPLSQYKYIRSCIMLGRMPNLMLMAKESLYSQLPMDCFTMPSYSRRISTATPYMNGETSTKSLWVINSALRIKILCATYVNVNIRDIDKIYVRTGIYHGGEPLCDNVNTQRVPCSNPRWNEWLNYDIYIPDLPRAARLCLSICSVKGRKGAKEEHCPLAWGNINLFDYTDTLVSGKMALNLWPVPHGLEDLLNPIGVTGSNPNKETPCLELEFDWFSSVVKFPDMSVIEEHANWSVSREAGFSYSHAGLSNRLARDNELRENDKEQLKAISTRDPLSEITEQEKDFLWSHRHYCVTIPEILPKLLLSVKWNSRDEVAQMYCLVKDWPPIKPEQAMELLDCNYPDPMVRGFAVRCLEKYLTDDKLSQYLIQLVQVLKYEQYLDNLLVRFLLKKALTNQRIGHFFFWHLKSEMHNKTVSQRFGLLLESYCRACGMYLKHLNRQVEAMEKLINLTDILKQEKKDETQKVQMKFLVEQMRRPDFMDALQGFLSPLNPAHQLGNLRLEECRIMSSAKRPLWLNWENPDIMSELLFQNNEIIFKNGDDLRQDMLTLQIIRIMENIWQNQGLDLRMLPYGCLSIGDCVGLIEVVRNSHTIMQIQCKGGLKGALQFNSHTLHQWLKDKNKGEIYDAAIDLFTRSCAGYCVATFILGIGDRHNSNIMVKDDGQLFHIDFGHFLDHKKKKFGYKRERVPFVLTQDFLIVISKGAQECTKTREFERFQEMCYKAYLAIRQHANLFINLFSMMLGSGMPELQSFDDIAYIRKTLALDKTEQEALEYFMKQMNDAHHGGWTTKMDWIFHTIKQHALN
TEST READOUT: IC50 (µM)
# unit: µM | format: bare number

Q: Form field: reported IC50 of O=S1(=O)CC2(OCCO2)c2cc3nccc(Nc4ccc5scnc5c4)c3cc21
Ans: 7.77

====

biological target: CYP2D6 (Homo sapiens, UniProt P10635); test: Inhibition of CYP2D6 (unknown origin) at 10 uM incubated for 20 mins by LC-MS/MS analysis; assay type: ADME
Sequence (P10635 whole entry): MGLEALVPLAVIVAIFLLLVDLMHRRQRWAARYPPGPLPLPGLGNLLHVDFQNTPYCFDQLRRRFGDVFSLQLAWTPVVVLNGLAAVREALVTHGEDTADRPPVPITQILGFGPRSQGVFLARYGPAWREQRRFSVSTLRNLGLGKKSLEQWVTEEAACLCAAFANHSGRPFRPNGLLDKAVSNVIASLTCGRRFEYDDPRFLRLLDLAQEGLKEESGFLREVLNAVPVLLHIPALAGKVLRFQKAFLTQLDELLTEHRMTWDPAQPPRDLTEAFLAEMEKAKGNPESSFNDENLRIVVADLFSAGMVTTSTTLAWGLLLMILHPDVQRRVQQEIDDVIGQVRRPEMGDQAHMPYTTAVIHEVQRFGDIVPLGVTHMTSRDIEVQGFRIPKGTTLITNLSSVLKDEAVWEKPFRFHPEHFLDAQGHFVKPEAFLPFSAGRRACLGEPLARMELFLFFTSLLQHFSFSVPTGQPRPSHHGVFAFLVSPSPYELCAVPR
TEST READOUT: inhibition at 20 min, 10 µM (%)
Lab book: enter the figure in %, no units written.

Q: What inhibition at 20 min, 10 µM appears in the records for this compound with CYP2D6 (Homo sapiens, UniProt P10635)? O=S1(=O)CC2(OCCO2)c2cc3nccc(Nc4ccc5scnc5c4)c3cc21
Ans: -5.26
